System: SF-539 CNS
ASSAY INFO: NCI tumour cell line growth inhibition, 48 h; in the data active means GI50 below about 0.43 µM; inactive means the rest
Labels: 1 for active, -1 for inactive

>>> print(df.to_string())
                                   molecule  cat
0  COc1cc2c3c(n(CCCN(C)C)c(=O)c2cc1OC)-c1ccccc1C3=O   -1
1  COc1ccc2c(O)cc3c(c2c1)[C@H](CCl)CN3C(=O)c1cc2cc(NC(=O)CCN3CCOCC3)ccc2[se]1    1
2  CCCCC1(CN2CCOCC2)S/C(=N/c2nc(CC(=O)OCC)cs2)NC1=O (centres undefined)   -1
3  C[C@]12CC[C@@H]3c4ccc(O)cc4CC[C@H]3[C@@H]1CC[C@@H]2NS(=O)(=O)c1cccc(F)c1   -1
4  O=C(Nc1ccc(-n2cc(-c3ccncc3)c(-c3ccc(Cl)c(O)c3)n2)cc1)Nc1ccc(Cl)c(C(F)(F)F)c1   -1
5        CCC(C)(C)c1ccc(OCCCCCCN2CCNCC2)cc1   -1
6  CCOC(=O)CNC(=O)c1ccccc1Nc1ccnc(C(F)(F)F)c1   -1
7  O=C(/C=C/c1cc(CN2CCOCC2)c(O)c2ncccc12)c1cc(CN2CCOCC2)c(O)c2ncccc12    1
